Reported TGI values for a set of molecules
Tested on: DMS 114 small cell lung
Test: NCI tumour cell line growth inhibition, 48 h
READOUT_LABEL: TGI (µM)

MOLECULE | READOUT_LABEL | SCALE_UNIT | RELATIONAL_OPERATOR | QUANTITATIVE_RESULT
O=C1CCC2CC(C(=O)c3ccccc3)CCC2CN1 (stereo not given) (tested in a mixture with another compound) | TGI | µM | > | 100
Cc1ccc(NC(=O)C(=O)C(C#N)c2nc(-c3ccc(-c4ccccc4)cc3)cs2)c(C)c1 (stereo not given) | TGI | µM | > | 100
O=C(O)C[C@H]1CCCCC12CCOC2=O (stereo not given in full) | TGI | µM | > | 100
CC(/C(=N\Nc1ccccc1)c1ccc(O)cc1)C1C(=O)Oc2ccccc21 (stereo not given) | TGI | µM | > | 100
CC1=NOC(=O)/C1=C/c1cccc2ccccc12 | TGI | µM | > | 100
Cc1cccc2c1N(C(=O)/C=C\C(=O)O)C(c1c(C)[nH]c3ccccc13)C2 (stereo not given) | TGI | µM | = | 42.2
C/C=C/C1=CC(=O)C(O)C1O (stereo not given) | TGI | µM | = | 72.5
CC1=CC(=C(c2ccc(N)cc2)c2ccc(N)cc2)C=CC1=N | TGI | µM | = | 12.9
N#Cc1c2c(c(N=P(c3ccccc3)(c3ccccc3)c3ccccc3)n3c1nc1ccccc13)CCCC2 | TGI | µM | = | 59.4
CNCc1cc(OC)ccc1-c1ccc(OC)c(OC)c1OC | TGI | µM | > | 100

---

Reported GI50 values for a set of compounds
Tested on: SF-268 CNS
Experiment: NCI tumour cell line growth inhibition, 48 h

STRUCTURE_SMILES | GI50
C[C@H](Nc1ncnc2nc[nH]c12)c1cc2ccc(F)cc2nc1-c1ccccn1 | > 100 µM
O=C1C(=O)c2c(nc3ccc(Br)cn23)-c2ccccc21 | 0.543 µM
Clc1ccc2c(c1)N(c1ncnc3ccc(-c4cnc5[nH]ccc5c4)cc13)CC2 | 3.14 µM
COc1ccc(C(=O)c2cc(OC)c(OC)c(OC)c2)cc1/C=C/C(=O)c1ccc(OC)c(OC)c1 | 3 µM
Clc1ccc2c(c1)N(CCCN1CCCC1)c1ccccc1S2 | 5.75 µM
NC(N)=N/N=C/c1c(-c2cc(Cl)sc2Cl)nc2sccn12 | 1.26 µM
Nc1nc2c(s1)CCc1c-2c(Br)n(Cc2ccccc2)c1Br | 14.6 µM
O=[N+]([O-])c1ccccc1N/N=C\c1c[nH]c2ccccc12 | 9.04 µM

---

System: OVCAR-3 ovarian
Assay: NCI tumour cell line growth inhibition, 48 h
READOUT_LABEL: TGI

STRUCTURE_SMILES | ASSAY_SYSTEM | READOUT_LABEL | RESULT
CC1(C)Cc2c(C#N)c(N)c3c(c2CO1)C(=O)OC3=O | OVCAR-3 ovarian | TGI | > 100 µM
CCOC(=O)CSC(=O)NCCCl | OVCAR-3 ovarian | TGI | > 100 µM
COc1cc(S(=O)(=O)Nc2ccc(-c3csc(N)n3)cc2)ccc1Cl | OVCAR-3 ovarian | TGI | 28.9 µM
Cc1nc2c(=O)n(-c3ccccc3)c3ccccc3c2o1 | OVCAR-3 ovarian | TGI | > 100 µM
CCN(CC)CCNC(=O)c1cc2cc(NC(=O)c3cc4cc(NC(=O)c5cc6cc(N)ccc6[nH]5)ccc4[nH]3)ccc2[nH]1 | OVCAR-3 ovarian | TGI | > 100 µM
